Please go through the items and note down their inhibition of SARS-CoV-2 cytopathic effect.
Tested on: Vero E6 infected with SARS-CoV-2
Experiment Description: inhibition of SARS-CoV-2 cytopathic effect; higher = more antiviral protection, active = above 15
Experimental Context: 8.33 nM; 48 h

These solved cases illustrate the format of a correct answer.
CSCC[C@H](NC(=O)[C@H](CC(C)C)NC(=O)[C@@H](Cc1c[nH]c2ccccc12)NC(=O)[C@H](Cc1ccccc1)N(C)C(=O)[C@@H](Cc1c[nH]c2ccccc12)NC(=O)[C@@H](N)CCCNC(=N)N)C(N)=O 0.43% (inactive)
O=C1OCCN1/N=C/c1ccc([N+](=O)[O-])o1 3.22% (inactive)

// next entry
For reference, reported inhibition of SARS-CoV-2 cytopathic effect for C[C@H](Nc1cc(NS(=O)(=O)N2CCC2)nc(SCc2cccc(F)c2F)n1)[C@@H](O)CO stands at 1.5% (inactive)
